tested on: HaCaT; assay: Inhibition of PGE2 production in human HaCaT cells after 24 hrs by RIA; format: functional, cell-based
recorded-metric: pIC50
Just so you know, pIC50 here is -log10 of the concentration in molar units; reply with that number alone.

Endpoint output: pIC50 of CS(=O)(=O)Nc1ccc([N+](=O)[O-])cc1OC1CCCCC1 . Value? 8.00

---

assay: Antiproliferative activity against human HaCaT cells assessed as [3H]thymidine incorporation at 5 uM after 24 hrs; format: cell-based
recorded-metric: inhibition at 24 h, 5 µM (%)
State the answer as a number, implicitly in %.

Endpoint output: inhibition at 24 h, 5 µM of CC1=CCC[C@H]2[C@](C)(CC3=CC(=O)C=C(NCCc4c[nH]c5ccccc45)C3=O)[C@@H](C)CC[C@]12C . Value? 33.3

Endpoint output: inhibition at 24 h, 5 µM of CNC1=CC(=O)C(C[C@]2(C)[C@@H](C)CC[C@]3(C)C(C)=CCC[C@@H]23)=CC1=O . Value? 33.5

Endpoint output: inhibition at 24 h, 5 µM of O=C1c2c(O)cccc2Cc2cccc(O)c21 . Value? 73.8

Endpoint output: inhibition at 24 h, 5 µM of CC1=CCC[C@H]2[C@](C)(Cc3cc(O)ccc3O)[C@@H](C)CC[C@]12C . Value? 18.9

Endpoint output: inhibition at 24 h, 5 µM of CC1=CCC[C@H]2[C@](C)(CC3=CC(=O)C(NCCc4c[nH]c5ccccc45)=CC3=O)[C@@H](C)CC[C@]12C . Value? 36.7
